Data provenance: patent US9738676B2

Target Under Test: PDE4 (U937)
Assay Procedure: PDE4 enzyme inhibition, IMAP fluorescence polarization assay
Format: biochemical, human
Reported Conditions: PDE4 partially purified from U937 cells
Value Type: IC50 (µM)
Enter your answer as a number in µM; do not include the unit.

Task item: Using the record for CC[C@H]1OC(=O)[C@H](C)[C@@H](O[C@H]2C[C@@](C)(OC)[C@@H](O)[C@H](C)O2)[C@H](C)[C@@H](O[C@@H]2O[C@H](C)C[C@H](N(C)C(C)=O)[C@H]2O)[C@](C)(OC)C[C@@H](C)C(=O)[C@H](C)[C@H]2[C@H](SCCN(Cc3c(Cl)cncc3Cl)c3ccc(OC)c(OC4CCCC4)c3)C(=O)O[C@@]21C [Example 10 of WO2009/106419] , report its IC50.
Reply: 0.031

Task item: Using the record for CC[C@H]1OC(=O)[C@H](C)[C@@H](O)[C@H](C)[C@@H](O[C@@H]2O[C@H](C)C[C@H](N(C)C(=O)N3CCOCC3)[C@H]2O)[C@](C)(OC)C[C@@H](C)C(=O)[C@H](C)[C@H]2C(SCCN(Cc3c(Cl)cncc3Cl)c3ccc(OC)c(OC4CCCC4)c3)C(=O)O[C@@]21C (stereo in doubt) [compound of formula (I)] , report its IC50.
Reply: 0.035

Task item: Using the record for CC[C@H]1OC(=O)[C@H](C)[C@@H](O[C@H]2C[C@@](C)(OC)[C@@H](O)[C@H](C)O2)[C@H](C)[C@@H](O[C@@H]2O[C@H](C)C[C@H](N(C)C(=O)N3CCOCC3)[C@H]2O)[C@](C)(OC)C[C@@H](C)C(=O)[C@H](C)[C@H]2[C@H](SCCOc3cc(C(=O)Nc4c(Cl)cncc4Cl)ccc3OC)C(=O)O[C@@]21C [Example 15 WO2009/106419] , report its IC50.
Reply: 0.071

Task item: Using the record for CC[C@H]1OC(=O)[C@H](C)[C@@H](O)[C@H](C)[C@@H](O[C@@H]2O[C@H](C)C[C@H](N(C)C(=O)N3CCOCC3)[C@H]2O)[C@](C)(OC)C[C@@H](C)C(=O)[C@H](C)[C@H]2[C@H](SCCOc3cc(C(=O)Nc4c(Cl)cncc4Cl)ccc3OC)C(=O)O[C@@]21C , report its IC50.
Reply: 0.0001

Task item: Using the record for CC[C@H]1OC(=O)[C@H](C)[C@@H](O[C@H]2C[C@@](C)(OC)[C@@H](O)[C@H](C)O2)[C@H](C)[C@@H](O[C@@H]2O[C@H](C)C[C@H](N(C)C(=O)N3CCOCC3)[C@H]2O)[C@](C)(OC)C[C@@H](C)C(=O)[C@H](C)[C@H]2[C@H](SCCN(Cc3c(Cl)cncc3Cl)c3ccc(OC)c(OC4CCCC4)c3)C(=O)O[C@@]21C , report its IC50.
Reply: 0.043

---
Task item: Using the record for CC[C@H]1OC(=O)[C@H](C)[C@@H](O)[C@H](C)[C@@H](O[C@@H]2O[C@H](C)C[C@H](N(C)C)[C@H]2OC)[C@](C)(OC)C[C@@H](C)C(=O)[C@H](C)[C@H]2[C@H](SCCN(Cc3c(Cl)cncc3Cl)c3ccc(OC)c(OC4CCCC4)c3)C(=O)O[C@@]21C [Example 9 of WO2009/106419] , report its IC50.
Reply: 0.3

Task item: Using the record for CC[C@H]1OC(=O)[C@H](C)[C@@H](O[C@H]2C[C@@](C)(OC)[C@@H](O)[C@H](C)O2)[C@H](C)[C@@H](O[C@@H]2O[C@H](C)C[C@H](N(C)C(=O)N3CCOCC3)[C@H]2O)[C@](C)(OC)C[C@@H](C)C(=O)[C@H](C)[C@H]2N(CCCOc3cc(C(=O)Nc4c(Cl)cncc4Cl)ccc3OC)C(=O)O[C@]12C [Example 2 of WO2001/018510] , report its IC50.
Reply: 0.876
